These entries and their values trace back to PubChem BioAssay AID504329.

assay: H1N1 influenza NS1A inhibitors, functional cell based assay (AID 504329); conditions: percent inhibition, at 12.5 µM, hits give high values
Out of some 340,000 compounds screened, about 1,000 (0.29%) were called active. Only a sample is shown. Measured potencies and affinities stand elsewhere.
Measured inhibition, listed per entry for reference.
Give the quantity in %, number only.

Solved cases (5 shown):
{"columns": ["SMILES STR", "RECORDED NUMBER"],
 "data": [
  ["S=C(Nc1ccc2nc(-c3ccccn3)c(-c3ccccn3)nc2c1)N1CCCCC1", -3.09],
  ["C/C(=N/O)c1ccccn1", 1.41],
  ["Cc1cccc(C(=S)N2CCOCC2)n1", -4.89],
  ["CSC(=S)N/N=C(\\C)c1ccc(Br)cc1", -6.45],
  ["CC(=NNC(=S)N1CC2CCC(CC2)C1)c1cccc(C)n1", 23.1]
]}

Next molecule, please.
[Q] I'd like to know its inhibition. The molecule in question is "CC1=NN(c2cccc(F)c2)C(=O)/C1=C/c1ccc(N(C)C)cc1"
[A] 15.2

----------
experiment: H1N1 influenza NS1A inhibitors, functional cell based assay (AID 504329); details: percent inhibition, at 12.5 µM, hits give high values
Hit rate of the full screen: of about 340,000 compounds, about 1,000 (0.29%) were called active. A selection follows. Results with a measured potency or affinity are listed apart.
MEASURED ENDPOINT: inhibition

{"columns": ["COMPOUND", "inhibition"],
 "data": [
  ["CC(=O)c1cccc(NC(=O)C2CCN(C(=O)c3cccs3)CC2)c1", "-11.1% (inactive)"],
  ["CN(C(=O)Oc1ccc([N+](=O)[O-])cc1)c1ccccc1", "5.58% (inactive)"],
  ["O=C(NCC1CCCN1S(=O)(=O)c1cccs1)c1ccccc1F (stereo not given)", "-4.78% (inactive)"],
  ["Cc1ccc(Nc2nc(N)nc(CSc3nnnn3-c3ccccc3)n2)cc1", "-1.1% (inactive)"],
  ["COc1ccc(CCNCc2ccccc2)cc1", "-9.83% (inactive)"]
]}

[Q] I'd like to know its inhibition. The compound in question is "COC(=O)c1ccccc1NC(=O)CSc1ncccn1"
[A] -13.4% (inactive)

[Q] Field entry: "CCOc1ccc(NC(=O)NCc2ccccn2)cc1"
[A] -5.82% (inactive)

[Q] Field entry: "c1ccc(-c2cnc(-c3ccccc3)nn2)cc1"
[A] 10% (inactive)

[Q] Field entry: "COc1ccc(CCNCc2ccccc2F)cc1"
[A] -20.5% (inactive)

[Q] Field entry: "Cc1ccccc1/C=N/Nc1ccc(Cl)nn1"
[A] 3.61% (inactive)

[Q] Field entry: CSCCC(=O)NC1CCCN(CCc2ccccc2)C1 (stereo not given)
[A] -10.8% (inactive)

[Q] Field entry: "O=C(NCc1ccccn1)Nc1ccccc1Cl"
[A] -1.88% (inactive)

[Q] Field entry: "c1ccc(-c2nn[nH]n2)nc1"
[A] -11.7% (inactive)

[Q] Field entry: "CCN(CC)S(=O)(=O)c1ccc(Cl)c(NC(=O)COc2ccc3c(C)cc(=O)oc3c2)c1"
[A] 15.6% (inactive)

[Q] Field entry: CCC(C)NC(=O)COCc1cc(-c2ccc3c(c2)OCO3)on1 (stereo not given)
[A] -7.2% (inactive)

[Q] Field entry: CCOc1ccc(NC(=O)CC(c2ccccc2)c2ccc(F)cc2)cc1 (stereo not given)
[A] -2.67% (inactive)

[Q] Field entry: "CCCCCCCCNc1nc(Cl)nc(NCc2ccco2)n1"
[A] -0.33% (inactive)

[Q] Field entry: "Nc1ccccc1N=Cc1c(O)n(CCC2=CCCCC2)c(=O)[nH]c1=O"
[A] -8.66% (inactive)

[Q] Field entry: "CC(C)[C@H](NC(=O)C1CCN(C(=O)[C@@H]2CCCN2)CC1)C(=O)NCc1ccc(F)cc1"
[A] -5.22% (inactive)

[Q] Field entry: "S=C(NCc1ccccn1)Nc1ccccc1Cl"
[A] -10.4% (inactive)

[Q] Field entry: "Oc1ccc(/C=N/Nc2ccc(Cl)nn2)cc1O"
[A] 4.82% (inactive)

[Q] Field entry: "c1ccc(-c2nc3ccccc3[nH]2)nc1"
[A] 13.8% (inactive)

[Q] Field entry: "Cc1cc(OCC(=O)N(C)C2CCCCC2)ccc1Cl"
[A] 1.86% (inactive)

[Q] Field entry: "Clc1ccc(OCc2nc(-c3ccccn3)n[nH]2)cc1"
[A] 6.94% (inactive)

[Q] Field entry: "CN1CCN(c2ccc(CNC(=O)c3cc4ccccc4o3)cc2)CC1"
[A] -11.5% (inactive)

----------
assay: H1N1 influenza NS1A inhibitors, functional cell based assay (AID 504329); details: percent inhibition, at 12.5 µM, hits give high values
About 1,000 (0.29%) of roughly 340,000 compounds were called active. These entries were drawn from the full list. Potency and affinity values are given separately.
MEASURED ENDPOINT: inhibition (%)
Give the quantity in %, number only.

Solved cases (8 shown):
{"columns": ["COMPOUND", "inhibition (%)"],
 "data": [
  ["C/C(=N/NC(=O)c1cn(-c2cccc(C)n2)cn1)c1ccc(C)cc1", 3.85],
  ["Cc1cn(CC(=O)NCc2ccc3c(c2)OCO3)c(=O)[nH]c1=O", 0.05],
  ["C/C(Cc1ccccc1)=N\\NC(=O)c1ccccn1", -7.02],
  ["CCOc1ccc(S(=O)(=O)N2CCC(C(=O)OCc3cccc(OC)c3OC)CC2)cc1", -13.5],
  ["CC(C)C[C@@H](CNCC(=O)[C@H](CC(C)C)NC(=O)c1[nH]cnc1C(=O)N[C@H](CN)CC(C)C)NC(=O)c1nc[nH]c1C(=O)N[C@@H](Cc1ccccc1)C(=O)O", -21.2],
  ["C/C(=C/c1ccccc1)C(=O)N1CCN(c2ccc(F)cc2)CC1", -28.5],
  ["CN(C)c1cccc2c(/C=N/O)ccc(N(C)C)c12", 5.22],
  ["CCOC(=O)Cc1csc(NS(=O)(=O)c2ccc(NC(C)=O)cc2)n1", -2.56]
]}

[Q] I'd like to know its inhibition. The compound in question is "CCn1c(SCC(=O)Nc2nc(-c3ccccc3)cs2)nc2c1c(=O)n(C)c(=O)n2C"
[A] 4.76

[Q] Field entry: O=C(NCCCn1ccnc1)C(=O)NCC1OCCN1S(=O)(=O)c1ccc(F)cc1 (stereo unspecified)
[A] 19.7

[Q] Field entry: C/C(=N\NC(=O)C1COc2ccccc2O1)c1ccc(C)o1 (stereo unspecified)
[A] 7.81

----------
experiment: H1N1 influenza NS1A inhibitors, functional cell based assay (AID 504329); details: percent inhibition, at 12.5 µM, hits give high values
About 1,000 (0.29%) of roughly 340,000 compounds were called active. These entries were drawn from the full list. Potency and affinity values are given separately.
Measured inhibition, listed per entry for reference.
Give the quantity in %, number only.

{"columns": ["MOLECULE", "inhibition / %"],
 "data": [
  ["COc1ccc(C(=O)NC2CCc3ccccc32)cc1OC1CCN(C(C)=O)CC1 (stereo unspecified)", -1.94],
  ["O=C(N/N=C/c1cccs1)c1ccc2c(c1)OCO2", 8.44],
  ["O=C(COC(=O)c1cccc(S(=O)(=O)NCc2ccccc2)c1)c1ccccc1", 3.76],
  ["CC(C)=C1C2CCC1C1C(=O)N(NC(=O)COc3ccc(C(C)(C)C)cc3)C(=O)C21 (stereo unspecified)", 4.52],
  ["O=C(Cc1ccccc1)Nc1cc(C(=O)c2ccccc2)ccc1N1CCOCC1", -3.63]
]}

[Q] I'd like to know its inhibition. The molecule in question is "CN(c1ccc(OCC(=O)OCC(=O)Nc2ccc(OC(F)F)cc2)cc1)S(=O)(=O)c1cccs1"
[A] -3.07

[Q] Field entry: "CCCCNC(=O)Cc1coc2ccc3ccccc3c12"
[A] -8.22

[Q] Field entry: "COc1cc(NCc2ccccc2)c2ncn(C(C)C)c2c1"
[A] 0.83

[Q] Field entry: "O=C1NC(=Nc2ccccc2Br)SC1(CO)CO"
[A] -3.43

[Q] Field entry: CCN(CC)CC(O)Cn1c(C)c(-c2ccccc2)c2cc([N+](=O)[O-])ccc21 (stereo unspecified)
[A] 27.4

[Q] Field entry: CCC(CO)Oc1cc(NCc2ccccc2)c2ncn(C(C)C)c2c1 (stereo unspecified)
[A] 3.05

----------
experiment: H1N1 influenza NS1A inhibitors, functional cell based assay (AID 504329); conditions: percent inhibition, at 12.5 µM, hits give high values
In all, about 340,000 compounds went through this assay and about 1,000 (0.29%) were called active. A selection follows. Entries with a potency or affinity are not part of this list.
MEASURED ENDPOINT: inhibition

Solved cases (10 shown):
{"columns": ["COMPOUND", "MEASURED ENDPOINT", "RESULT"],
 "data": [
  ["N#Cc1ccccc1OCC(=O)Nc1ccccc1C(=O)NC1CC1", "inhibition", "-6.65% (inactive)"],
  ["CN(C)c1ccc(/C=C/c2nc3ccccc3s2)cc1", "inhibition", "-0.93% (inactive)"],
  ["CCOC(=O)C1=C(C)N=c2s/c(=C/c3cccc([N+](=O)[O-])c3O)c(=O)n2C1c1ccc(OC)cc1OC (stereo not drawn)", "inhibition", "22.2% (inactive)"],
  ["COc1ccc2c(c1)-c1c(ssc1=S)C(C)(C)N2S(=O)(=O)c1ccc(C)cc1", "inhibition", "17.8% (inactive)"],
  ["COc1cccc(CC(CC(=O)O)C(=O)Nc2cc(C)ccc2C)c1 (stereo not drawn)", "inhibition", "2.74% (inactive)"],
  ["COc1ccccc1NC(=O)CSc1nnc(C)s1", "inhibition", "4.51% (inactive)"],
  ["COc1ccccc1C(=O)NC(CCSC)C(=O)NCc1ccncc1 (stereo not drawn)", "inhibition", "-4.75% (inactive)"],
  ["COc1ccc(C(C)(C)C)cc1NC(=O)COC(=O)CSCc1c(C)noc1C", "inhibition", "12.6% (inactive)"],
  ["N#Cc1c(N)nc2c(c1-c1ccc(F)cc1)CCC2", "inhibition", "0.84% (inactive)"],
  ["Cc1nnc2sc(SCc3ccccc3Cl)nn2c1=O", "inhibition", "-4.7% (inactive)"]
]}

[Q] I'd like to know its inhibition. The compound in question is "Cc1ccc(C(=O)N2CCN(c3ccccc3Cl)CC2)cc1[N+](=O)[O-]"
[A] -8.39% (inactive)

[Q] Field entry: "CCOn1c(=O)c(-c2ccc(F)cc2)[n+]([O-])c2ccccc21"
[A] -9.53% (inactive)

[Q] Field entry: "CC[n+]1c(/C=C/C=C/N(C(C)=O)c2ccccc2)sc2ccccc21"
[A] 25.6% (inactive)
